Measured values drawn from the supplement of paper PMC5844555 for this set.

Tested on: BRCA2
assay_name: 3' UTR reporter interaction score (median-centred robust z-score of log2 firefly/Renilla activity); higher = less repression of the 3' UTR reporter
condition_info: HEK293T; 48 h
Mark label 0 for 3' UTR reporter interaction score values under 0.02, and label 1 for everything at or above.

[ask] Given "GCGUGCGCCGGCCGGCCGCC" , state whether its 3' UTR reporter interaction score is at least 0.02.
[reply] label 1

[ask] What would you report for "UAAGGUGCAUCUAGUGCAGUUA" ?
[reply] label 0

[ask] How about "CCCAGAUAAUGGCACUCUCAA" ?
[reply] label 0

[ask] # repeat for "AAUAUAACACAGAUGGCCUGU"
[reply] label 0

[ask] What about "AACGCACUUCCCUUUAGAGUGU" ?
[reply] label 1

[ask] Okay, and "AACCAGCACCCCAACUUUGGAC" ?
[reply] label 0

[ask] Lookup "AAAAGCUGGGUUGAGAGGGCGAA"
[reply] label 1

[ask] Same thing, different sequence: "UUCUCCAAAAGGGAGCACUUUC"
[reply] label 0

[ask] And for "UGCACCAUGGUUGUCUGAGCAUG" ?
[reply] label 1

[ask] Consider next the sequence "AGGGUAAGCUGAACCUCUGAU" in the same way.
[reply] label 0

[ask] Can you check "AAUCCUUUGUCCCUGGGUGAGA" next?
[reply] label 1

[ask] "AGACUUCCCAUUUGAAGGUGGC" , same question.
[reply] label 0

[ask] Can you check "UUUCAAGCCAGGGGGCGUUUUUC" next?
[reply] label 0

[ask] Item: "UCUACAAAGGGAAGCCCUUUCUG"
[reply] label 1

[ask] Further, for "UUAAGGCACGCGGUGAAUGCCA" ?
[reply] label 0

[ask] Follow-up item: "ACUUUAACAUGGAAGUGCUUUCU"
[reply] label 1

[ask] Query "UAAACGUGGAUGUACUUGCUUU" next
[reply] label 1

[ask] Also "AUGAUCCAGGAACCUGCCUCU" , if possible.
[reply] label 1

[ask] Try this sequence too: "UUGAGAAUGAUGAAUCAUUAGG"
[reply] label 1
